# System: P388
# Procedure details: In vivo antitumor activity against P-388 lymphocytic leukemia in mice treated with a dose of 50 mg/kg
# Assay type: functional, Mus musculus
Provide the recorded T/C for the entries that follow.
Reply: number alone, nothing else.

Task item: Which T/C reading was recorded for the compound "CN(C)CCNc1ccc(CO)c2oc3ccc(O)cc3c(=O)c12" ?
Reply: 170

Task item: For the compound "CCN(CC)CCNc1ccc(CO)c2oc3ccc(O)cc3c(=O)c12" , what T/C is on record?
Reply: 181

Task item: Which T/C is listed for "CCN(CC)CCNc1ccc(C)c2oc3ccc(O)cc3c(=O)c12" ?
Reply: 117

Task item: What value of T/C has been reported for the following compound? "CN(C)CCNc1ccc(CO)c2sc3ccccc3c(=O)c12"
Reply: 114

Task item: I would be grateful if you could share the reported T/C for "Cc1ccc(NCCN(C)C)c2c(=O)c3cc(O)ccc3oc12" .
Reply: 108
